Data origin, for the record: patent US20220242950A1

Target: T1, recombinant hIL1RAP Domain1+2+3 (aa21-367) (human, UniProt Q9NPH3 21-367)
T1 construct: Numbering on Uniprot Q9NPH3
T1 sequence (looked up): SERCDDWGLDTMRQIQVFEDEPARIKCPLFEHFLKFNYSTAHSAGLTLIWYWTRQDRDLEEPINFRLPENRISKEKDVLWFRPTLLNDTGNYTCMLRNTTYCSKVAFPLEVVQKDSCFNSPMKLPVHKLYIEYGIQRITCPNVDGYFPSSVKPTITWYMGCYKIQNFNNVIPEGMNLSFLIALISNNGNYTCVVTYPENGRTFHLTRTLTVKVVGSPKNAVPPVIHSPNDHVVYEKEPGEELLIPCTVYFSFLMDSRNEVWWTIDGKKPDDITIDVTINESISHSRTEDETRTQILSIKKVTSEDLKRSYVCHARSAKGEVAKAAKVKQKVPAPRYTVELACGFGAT
Assay: binding ELISA, coated recombinant hIL1RAP aa21-367
Overview of recorded IC50 for various binders
Experimental Readout: IC50 (µg/mL)

h48D2 VH2:VL1 (antibody, human IgG1, kappa, L234A L235A, V domains shown, Humanized; also called VL1:VH2) VH: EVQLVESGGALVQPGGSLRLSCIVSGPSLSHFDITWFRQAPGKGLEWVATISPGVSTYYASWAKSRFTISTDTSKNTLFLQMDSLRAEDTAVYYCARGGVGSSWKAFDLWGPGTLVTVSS VL: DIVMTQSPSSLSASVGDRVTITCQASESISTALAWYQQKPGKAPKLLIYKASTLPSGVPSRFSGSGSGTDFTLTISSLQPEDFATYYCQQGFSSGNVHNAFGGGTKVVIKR ... 0.0238
h48D2 VH1:VL4 (antibody, human IgG1, kappa, L234A L235A, V domains shown, Humanized; also called VL4:VH1) VH: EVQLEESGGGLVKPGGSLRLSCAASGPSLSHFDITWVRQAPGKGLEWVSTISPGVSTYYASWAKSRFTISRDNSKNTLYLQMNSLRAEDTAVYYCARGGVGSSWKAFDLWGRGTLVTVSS VL: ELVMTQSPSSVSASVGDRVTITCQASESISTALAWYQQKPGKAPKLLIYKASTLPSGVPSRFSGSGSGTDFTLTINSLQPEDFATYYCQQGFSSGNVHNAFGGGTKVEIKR ... 0.019
h48D2 VH3:VL1 (antibody, human IgG1, kappa, L234A L235A, V domains shown, Humanized; also called VL1:VH3) VH: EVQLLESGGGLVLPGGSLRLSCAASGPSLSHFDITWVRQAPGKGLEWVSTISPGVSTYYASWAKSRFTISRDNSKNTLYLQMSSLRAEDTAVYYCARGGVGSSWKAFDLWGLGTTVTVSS VL: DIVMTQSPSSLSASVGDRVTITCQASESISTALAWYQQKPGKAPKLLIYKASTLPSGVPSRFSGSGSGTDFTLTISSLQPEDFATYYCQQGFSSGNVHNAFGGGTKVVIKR ... 0.0257
h48D2 VH2:VL5 (antibody, human IgG1, kappa, L234A L235A, V domains shown, Humanized; also called VL5:VH2) VH: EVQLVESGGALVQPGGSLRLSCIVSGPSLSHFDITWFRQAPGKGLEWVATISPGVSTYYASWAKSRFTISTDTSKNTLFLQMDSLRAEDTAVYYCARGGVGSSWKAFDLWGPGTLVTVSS VL: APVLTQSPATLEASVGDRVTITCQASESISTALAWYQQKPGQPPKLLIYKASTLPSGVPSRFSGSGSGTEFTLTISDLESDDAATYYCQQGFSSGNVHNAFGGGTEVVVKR ... 0.0249
h48D2 VH3:VL2 (antibody, human IgG1, kappa, L234A L235A, V domains shown, Humanized; also called VL2:VH3) VH: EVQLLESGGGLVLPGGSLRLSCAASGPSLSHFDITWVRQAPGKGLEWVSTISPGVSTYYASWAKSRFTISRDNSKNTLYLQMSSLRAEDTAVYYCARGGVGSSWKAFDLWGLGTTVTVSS VL: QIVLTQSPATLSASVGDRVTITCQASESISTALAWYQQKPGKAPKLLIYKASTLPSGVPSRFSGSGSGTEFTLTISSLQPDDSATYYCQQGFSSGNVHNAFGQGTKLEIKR ... 0.0258
h48D2 VH2:VL3 (antibody, human IgG1, kappa, L234A L235A, V domains shown, Humanized; also called VL3:VH2) VH: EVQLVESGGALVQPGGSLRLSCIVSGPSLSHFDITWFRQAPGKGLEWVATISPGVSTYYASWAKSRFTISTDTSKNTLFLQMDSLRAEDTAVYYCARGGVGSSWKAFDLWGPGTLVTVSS VL: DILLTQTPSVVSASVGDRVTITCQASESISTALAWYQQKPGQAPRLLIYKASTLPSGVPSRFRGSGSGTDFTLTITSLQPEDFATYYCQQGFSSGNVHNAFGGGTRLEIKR ... 0.0273
h48D2 VH1:VL3 (antibody, human IgG1, kappa, L234A L235A, V domains shown, Humanized; also called VL3:VH1) VH: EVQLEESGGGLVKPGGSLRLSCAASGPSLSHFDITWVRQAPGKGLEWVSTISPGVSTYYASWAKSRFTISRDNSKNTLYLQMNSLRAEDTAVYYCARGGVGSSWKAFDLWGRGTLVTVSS VL: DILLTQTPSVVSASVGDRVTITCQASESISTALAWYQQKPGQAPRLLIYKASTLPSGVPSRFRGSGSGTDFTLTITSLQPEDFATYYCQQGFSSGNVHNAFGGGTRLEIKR ... 0.0201
h48D2 VH1:VL2 (antibody, human IgG1, kappa, L234A L235A, V domains shown, Humanized; also called VL2:VH1) VH: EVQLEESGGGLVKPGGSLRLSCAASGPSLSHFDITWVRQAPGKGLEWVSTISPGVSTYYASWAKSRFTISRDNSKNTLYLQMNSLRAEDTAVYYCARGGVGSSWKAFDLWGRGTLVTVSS VL: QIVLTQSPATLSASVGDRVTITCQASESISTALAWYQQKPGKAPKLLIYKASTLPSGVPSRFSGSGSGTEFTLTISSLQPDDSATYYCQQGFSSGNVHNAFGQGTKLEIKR ... 0.0182
h48D2 VH4:VL3 (antibody, human IgG1, kappa, L234A L235A, V domains shown, Humanized; also called VL3:VH4) VH: QVQLQESGPGLVKPSETLSLTCTVSGPSLSHFDITWIRQPPGKGLEWIGTISPGVSTYYASWAKSRFTISVDTSKNQFSLKLTSVTAADTATYYCARGGVGSSWKAFDLWGPGTLVTVSS VL: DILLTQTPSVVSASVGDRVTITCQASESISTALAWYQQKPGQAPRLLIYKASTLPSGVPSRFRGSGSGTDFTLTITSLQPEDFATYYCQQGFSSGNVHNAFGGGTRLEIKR ... 0.0312
h48D2 VH3:VL4 (antibody, human IgG1, kappa, L234A L235A, V domains shown, Humanized; also called VL4:VH3) VH: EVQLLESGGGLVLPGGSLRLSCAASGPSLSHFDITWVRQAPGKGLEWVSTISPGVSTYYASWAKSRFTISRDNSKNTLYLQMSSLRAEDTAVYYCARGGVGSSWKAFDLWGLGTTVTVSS VL: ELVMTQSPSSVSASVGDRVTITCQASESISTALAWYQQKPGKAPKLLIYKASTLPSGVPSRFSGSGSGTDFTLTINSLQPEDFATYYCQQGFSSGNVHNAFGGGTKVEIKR ... 0.0263
